# Tested on: Rattus norvegicus
# Assay Protocol: Volume of distribution in rat at 2 mpk, iv
# Setup Conditions: in vivo, 2 mg/kg
Measured Attribute: Vdss

Consider the worked cases shown below.
molecule=CN1C(=O)NC(=O)[C@]12Cc1ccc(NC(=O)Cn3c(=O)n(-c4cnccn4)c4ccccc43)cc1C2 measured_attribute=Vdss result="0.64 L/kg"
molecule=CN1C(=O)NC(=O)[C@]12Cc1ccc(NC(=O)Cn3c(=O)n(-c4cncnc4)c4ccccc43)cc1C2 measured_attribute=Vdss result="0.95 L/kg"
molecule=CN1C(=O)NC(=O)[C@]12Cc1ccc(NC(=O)Cn3c(=O)n(-c4ncccn4)c4ccccc43)cc1C2 measured_attribute=Vdss result="0.5 L/kg"
molecule=CN1C(=O)NC(=O)[C@]12Cc1ccc(NC(=O)Cn3c(=O)n(-c4cnsc4)c4ccccc43)cc1C2 measured_attribute=Vdss result="2 L/kg"
molecule=CN1C(=O)NC(=O)[C@]12Cc1ccc(NC(=O)Cn3c(=O)n(-c4cc(F)cc(F)c4)c4ccccc43)cc1C2 measured_attribute=Vdss result="1.4 L/kg"
molecule="CN1C(=O)NC(=O)[C@]12Cc1ccc(NC(=O)Cn3c(=O)n(C4CCOC4)c4ccccc43)cc1C2 (some centres not stated)" measured_attribute=Vdss result="0.43 L/kg"

Next, consider the following molecule.
Recorded Vdss of `COc1cccc(-n2c(=O)n(CC(=O)Nc3ccc4c(c3)C[C@]3(C4)C(=O)NC(=O)N3C)c3ccccc32)n1` , please. 0.84 L/kg

The measured values listed here are drawn from ChEMBL document CHEMBL1146172.
